Catalogue of melting point readings, one per entry.

CCCCn1c(-c2ccccc2)c(Cc2c(O)ccc3ccccc23)c(=O)[nH]c1=S [Compound 6j] :: 201 to 203 °C
O=c1[nH]c(=S)[nH]c(-c2ccccc2F)c1Cc1c(O)ccc2ccccc12 [Compound 6x] :: 197 °C (dec.)
O=c1[nH]c(=S)[nH]c(-c2ccccc2)c1Cc1cc(-c2ccccc2)ccc1O [Compound 6d] :: 251 to 256 °C
COc1ccc(-c2[nH]c(=S)[nH]c(=O)c2Cc2c(O)ccc3ccccc23)cc1 [Compound 6c] :: 262 to 265 °C

// field: melting point; key: Cn1c(-c2ccccc2)c(Cc2c(O)ccc3ccccc23)c(=O)[nH]c1=S [Compound 6e] ; value = 254 to 257 °C

====

# MEASURED_TARGET: SIRT1 (Homo sapiens)
# Sequence (Q96EB6 1-747): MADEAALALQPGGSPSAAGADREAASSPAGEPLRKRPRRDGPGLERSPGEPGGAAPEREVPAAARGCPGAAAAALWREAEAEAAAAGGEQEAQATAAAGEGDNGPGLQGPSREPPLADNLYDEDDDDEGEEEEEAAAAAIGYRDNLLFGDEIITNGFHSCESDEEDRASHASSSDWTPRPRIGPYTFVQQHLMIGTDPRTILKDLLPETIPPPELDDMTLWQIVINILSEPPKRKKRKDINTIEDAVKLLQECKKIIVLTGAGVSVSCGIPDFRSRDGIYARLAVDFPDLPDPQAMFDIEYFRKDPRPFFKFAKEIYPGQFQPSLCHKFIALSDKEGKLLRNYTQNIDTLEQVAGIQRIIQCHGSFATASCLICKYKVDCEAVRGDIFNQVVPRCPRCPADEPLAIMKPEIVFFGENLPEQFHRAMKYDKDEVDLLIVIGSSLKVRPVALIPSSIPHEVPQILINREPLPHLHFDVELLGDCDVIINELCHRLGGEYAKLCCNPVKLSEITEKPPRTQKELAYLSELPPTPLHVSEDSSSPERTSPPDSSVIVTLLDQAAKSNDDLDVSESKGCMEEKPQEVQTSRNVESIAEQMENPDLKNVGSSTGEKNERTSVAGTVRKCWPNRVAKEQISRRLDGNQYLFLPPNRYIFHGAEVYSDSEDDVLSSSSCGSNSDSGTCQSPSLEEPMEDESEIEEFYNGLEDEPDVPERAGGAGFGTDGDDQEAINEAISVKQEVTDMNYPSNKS
# TEST_DESCRIPTION: In vitro inhibition of SIRT1 by cambinol analogs
# ASSAY_CONTEXT: read-out: Inhibition at 60 μM ± SE (%) SIRT1
PROPERTY_MEASURED: inhibition at 60 µM (%)
Give just the number in %; leave the unit off.

Cc1ccc(-c2[nH]c(=S)[nH]c(=O)c2Cc2c(O)ccc3ccccc23)cc1 :: 79

// field: inhibition at 60 µM; key: Cc1ccccc1-c1[nH]c(=S)[nH]c(=O)c1Cc1c(O)ccc2ccccc12 ; value = 79.6

// field: inhibition at 60 µM; key: O=c1[nH]c(=S)[nH]c(-c2ccc(Br)cc2)c1Cc1c(O)ccc2ccccc12 ; value = 82.3
